# System Name: T1, human TROP2-Fc protein antigen (human, UniProt P09758 27-274)
# T1 construct: extracellular domain; also called CRD + TY-1 + CPD; not shown: IgG Fc of the pFUSE-IgG plasmid
# T1 sequence (looked up): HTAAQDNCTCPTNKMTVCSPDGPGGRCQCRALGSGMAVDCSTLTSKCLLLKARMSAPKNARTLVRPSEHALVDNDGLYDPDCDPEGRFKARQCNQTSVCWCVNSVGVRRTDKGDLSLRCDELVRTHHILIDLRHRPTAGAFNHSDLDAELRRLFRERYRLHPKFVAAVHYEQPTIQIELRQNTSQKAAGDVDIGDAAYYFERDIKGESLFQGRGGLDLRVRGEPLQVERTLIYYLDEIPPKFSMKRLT
# Method: ELISA, coated Fc protein of human TROP2 CRD + TY-1 + CPD, Kd calculated from absorbance
Property: Kd (nM)
API: value field is a number in nM; no unit string.

Query: Kd; subject: MY1530-6-1 (VHH, Expressed in E. coli WK6 from vector pMECS, purified on a nickel column; also called MY1530-6-1 VHH; anti-TROP2 single domain antibody) VHH: QVQLQESGGGSVQAGGSLRLSCAASGFPYSSYSMGWFRQAPGKEREGVAAIYTGGGSTYYAGSVKGRFTISQEHATNTLYLQMNSLKPEDTAMYYCAANMVDNGVISGIQALGVRYYNYWGQGTQVTVSS 1.51

Now consider MY1530-4-28 (VHH, Expressed in E. coli WK6 from vector pMECS, purified on a nickel column; also called MY1530-4-28 VHH; anti-TROP2 single domain antibody) VHH: QVQLQESGGGSVQAGGSLRLSCAASGFSVSTTWMHWVRQAPGKGLEWVSRIAINDHTFYAESVKGRFTMSTDNAKNTVYLQMTSLKPEDTAVYYCSPYSDYRIRGQGTQVTVSS . 1.2

Same again, this time with MY1530-5-54 (VHH, Expressed in E. coli WK6 from vector pMECS, purified on a nickel column; also called MY1530-5-54 VHH; anti-TROP2 single domain antibody) VHH: QVQLQESGGGSVQPGGSLRLSCVASGYTASSVCMAWFRQAPGKERELVAGYYHSGGTYYGDSVKGRFTASQDNAKNTLYLQMNSLKPEDTATYYCARARYPSSACGTSPSNYNIWGQGTQVTVSS 1.28

Please do the same for MY1530-2-53 (VHH, Expressed in E. coli WK6 from vector pMECS, purified on a nickel column; also called MY1530-2-53 VHH; anti-TROP2 single domain antibody) VHH: QVQLQESGGGSVQAGGSLRLSCAVSGLTSSTTCMGWFRQAPGKEREGVAVIRSSGETTAADSVKGRFTISRDNAKNTLSLQMTSLKPEDTAMYYCAAAWPYSGCLLPLSSGDFTYWGQGTQVTVSS as well. 4.23

Data origin, for the record: patent US20240368302A1
